Molecular target: human APJ receptor (Homo sapiens (Human), UniProt P35414)
Sequence (P35414 whole entry): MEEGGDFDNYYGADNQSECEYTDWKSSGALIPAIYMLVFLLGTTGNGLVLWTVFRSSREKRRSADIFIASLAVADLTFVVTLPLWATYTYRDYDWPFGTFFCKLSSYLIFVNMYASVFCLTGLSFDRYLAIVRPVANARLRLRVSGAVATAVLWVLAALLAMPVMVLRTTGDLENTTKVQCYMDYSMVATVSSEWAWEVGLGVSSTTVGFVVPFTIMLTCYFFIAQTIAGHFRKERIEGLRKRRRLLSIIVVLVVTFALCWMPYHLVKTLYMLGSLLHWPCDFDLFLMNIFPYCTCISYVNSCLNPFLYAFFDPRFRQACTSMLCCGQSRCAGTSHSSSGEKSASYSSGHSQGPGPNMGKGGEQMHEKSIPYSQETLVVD
Test: biochemical
Conditions: [35S]GTPγS binding, CHO membranes expressing human APJ receptor; read-out: Activity hAPJ SPA EC50 IP
REPORTED ENDPOINT: EC50 (nM)
Could you give me the number in nM? Just the number is fine.

Example results:
>>> quantitative_readout("CO[C@H](c1ncc(C)cn1)[C@H](C)S(=O)(=O)Nc1nnc(-c2ccn(C)n2)n1-c1c(F)cccc1F")
17
>>> quantitative_readout("COc1ncnc(OC)c1-n1c(NS(=O)(=O)[C@@H](C)[C@H](OC)c2ncc(Cl)cn2)nnc1-c1ccn(C)n1")
0.81
>>> quantitative_readout("COCC(COC)n1c(NS(=O)(=O)[C@@H](C)[C@H](C)c2ncc(Cl)cn2)nnc1-c1nn(C)c2ccccc12")
13
>>> quantitative_readout("COc1cccc(OC)c1-n1c(NS(=O)(=O)CCc2ccc(Cl)cc2)nnc1-c1cc(C)on1")
71
>>> quantitative_readout("COc1cccc(OC)c1-n1c(NS(=O)(=O)[C@H](C)[C@@H](OC)c2ncc(F)cn2)nnc1-c1ccn(C)n1 (single isomer, unassigned) [Example 118.0]")
100

Okay, now this molecule:
Lookup: // Input: `COc1cccc(OC)c1-n1c(NS(=O)(=O)[C@@H](C)[C@H](C)c2ncc(C)cn2)nnc1-c1cc(C)[nH]n1` . Output its EC50 only.
Found: 1.5

Taken from patent US11046680B1.
